# assay notes: Quantification of KD87 in plasma of mice after intraperitoneal injection
# Assay type: in vivo
# measurement setup: male, NSG (NOD.Cg-Prkdc^scid Il2rg^tm1Wjl/SzJ), mouse, ip, 20 mg/kg, 20 mg/kg intraperitoneal, 30 min, protein precipitation, mean ± SD n = 8
parameter measured: concentration at 30 min (nM)
API: value field is a number in nM; no unit string.

[Q] Query: concentration at 30 min; subject: O=C1/C(=C2/C(=O)N([C@@H]3O[C@H](CO)[C@@H](O)[C@H](O)[C@H]3O)c3ccccc32)Sc2ccccc21 [KD87]
[A] 1890

---

# assay notes: Quantification of KD87 in plasma of mice after intraperitoneal injection
# Type: in vivo
# measurement setup: male, NSG (NOD.Cg-Prkdc^scid Il2rg^tm1Wjl/SzJ), mouse, ip, 20 mg/kg, 20 mg/kg intraperitoneal, 30 min, liquid-liquid extraction, mean ± SD n = 8
parameter measured: concentration at 30 min (nM)
API: value field is a number in nM; no unit string.

[Q] Query: concentration at 30 min; subject: O=C1/C(=C2/C(=O)N([C@@H]3O[C@H](CO)[C@@H](O)[C@H](O)[C@H]3O)c3ccccc32)Sc2ccccc21
[A] 2190
